Assay notes: reduction of polyQ htt aggregates in cells – imaging, exon1htt(103Q)mCFP cells, high-content imaging, primary screen (AID 483);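 further: compound exposure lasted 3 days before fixation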
Test settings: exon1htt(103Q)mCFP cell line, aggregate imaging, at 2 µM; hits give high values
# binarize inhibition of aggregation: threshold 20% inclusive, high side met, low side not met

Example entries begin here.
CCC(C(=O)NC1CCCC1)N(Cc1ccco1)C(=O)Cn1nnc(-c2ccc(C)cc2)n1 (stereo unspecified) : not met
COc1ccc(C2CC(c3ccc(C)cc3)Nc3ncnn32)cc1 (stereo unspecified) : not met
c1cc(C(c2nnnn2C2CCCC2)N2CCOCC2)ccn1 (stereo unspecified) : met
Cc1cccc(NC(=O)CCCCCN2C(=O)c3ccccc3C2=O)n1 : not met

Now turn to the next compound.
Given the entry CC1Cc2ccccc2N1Cc1cc(=O)n2ccsc2n1 (stereo unspecified) , answer whether its inhibition of aggregation meets or surpasses 20%.
not met

====

Assay notes: TLR3 IRF3 reporter activation blockers – cell-based, poly I:C stimulus, luciferase, 10K MLSCN set, primary screen (AID 602277)
Test settings: HEK293-TLR3 RL24 IRF3 luciferase reporter, at 10 µM, hits give high values
# cutoff 20% applies to inhibition; >= gives fulfilled, < gives not fulfilled

Cc1ccc(-n2nc(-c3cccs3)cc2C(=O)NCC2CCCO2)c(C)c1 (stereo unspecified) : fulfilled

Alright, here's another compound for you.
Is the recorded value of inhibition equal to or greater than 20% for this compound? Cc1cc(NC(=O)CS(=O)(=O)c2cn(Cc3ccccc3Cl)c3ccccc23)no1
not fulfilled

====

Target of assay: Alpha-2C adrenergic receptor (Homo sapiens)
Assay notes: compounds altering alpha2C-coupled GIRK flux – cell-based, HEK293 alpha2C/GIRK1/2, thallium flux, primary screen (AID 624);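 further: slope of fluorescence ratio to pre-addition baseline per second over 15 to 24 s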
Test settings: thallium flux BTC fluorescence, at 10 µM, actives lie on both sides
# slope listing for each entry below
Would you mind answering with just the numeric figure?

// below: answered molecules
Cn1cccc1Cc1nnc(SCC(N)=O)n1-c1ccc(F)cc1 : 0.00615
COc1cccc(OCCn2ccnc2)c1 : 0.00692
O=C(CN1CCN(c2nc(-c3ccccc3)cs2)CC1)Nc1ccc2c(c1)OCO2 : 0.00563

Sample CN(C(=O)c1ccc(S(=O)(=O)NC2CCCC2)cc1)C1CCCCC1 ; slope observed: 0.0047

The molecule identified as CCCN1Cc2cccc(C(=O)NC3CCCC3)c2C1=O registered its slope at 0.0059

Noted for c1cncc(-c2nc3c4ccccc4nc(N4CCC(N5CCCCC5)CC4)n3n2)c1 : its slope reads 0.00496

In plain terms, COc1ccc2ccccc2c1CN1CCCC(CO)C1 (stereo unspecified) has a documented slope of 0.00503

Form: molecule = CCC(C)(C)NC(=O)CN(C(=O)c1snc(C(N)=O)c1N)c1ccc2c(c1)OCO2 ; slope = 0.00589

slope reported for this molecule COC(=O)C1C2C=CC3(CN(CC4CCCO4)C(=O)C13)O2 (stereo unspecified) : 0.00504

response.value for CCOc1cc2oc(=O)c3c(c2cc1Cl)CCC3 (field: slope) = 0.00626

The reported slope of the molecule O=S(=O)(c1ccc(S(=O)(=O)N(Cc2ccco2)Cc2ccccc2Cl)cc1)N1CCCC1 was 0.00951

====

Target of assay: Alpha-2C adrenergic receptor (Homo sapiens)
Assay notes: compounds altering alpha2C-coupled GIRK flux – cell-based, HEK293 alpha2C/GIRK1/2, thallium flux, primary screen (AID 624);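 further: slope of fluorescence ratio to pre-addition baseline per second over 15 to 24 s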
Test settings: thallium flux BTC fluorescence, at 10 µM, actives lie on both sides
Endpoint label: slope
Reply: number alone, nothing else.

O=C(CC1(O)C(=O)Nc2ccccc21)c1ccc2c(c1)OCO2 (stereo unspecified) : 0.00339
COc1ccc(C(NC(C)=O)c2ccc3cccnc3c2O)c(OC)c1 (stereo unspecified) : 0.00602
O=S(=O)(Nn1cnnc1)c1ccccc1Cl : 0.00434
O=C(OCc1nnc(-c2ccccc2)o1)c1ccc2ccccc2n1 : 0.00433
Cc1c(NC(=O)C(C)Oc2ncnc3ccccc23)c(=O)n(-c2ccccc2)n1C (stereo unspecified) : 0.00757

Measured slope of Cc1c(NC(=O)c2ccc(COc3ccc4ccccc4c3)o2)c(=O)n(-c2ccccc2)n1C : 0.0029

slope reading for O=C(Nc1nnc(C2CCCC2)s1)C1CCN(S(=O)(=O)c2ccc(Cl)cc2)CC1 : 0.00671

Form: compound = CCOc1ccc(S(=O)(=O)n2c(C)nc3ccccc32)cc1 ; slope = 0.00517

According to the records, this compound CCOC(=O)N1CCN(C(=O)CN(Cc2ccccc2)S(=O)(=O)c2ccc(OC)c(C)c2)CC1 displays slope of 0.00442

Summary for this compound, COc1ccccc1C1/C(=C(/O)c2ccccc2)C(=O)C(=O)N1CC(C)C (stereo unspecified) : slope is 0.00652

slope for COC(=O)C1=C(C)N(Cc2ccco2)C(=O)C1 is 0.00527

Attribution: PubChem BioAssay
